- target-or-system: T1, human CD81 mutant G158S (human, UniProt P60033 1-236, limits assumed)
- T1 construct: as m30; not shown: C-terminal V5 and 6xHis tags
- T1 sequence: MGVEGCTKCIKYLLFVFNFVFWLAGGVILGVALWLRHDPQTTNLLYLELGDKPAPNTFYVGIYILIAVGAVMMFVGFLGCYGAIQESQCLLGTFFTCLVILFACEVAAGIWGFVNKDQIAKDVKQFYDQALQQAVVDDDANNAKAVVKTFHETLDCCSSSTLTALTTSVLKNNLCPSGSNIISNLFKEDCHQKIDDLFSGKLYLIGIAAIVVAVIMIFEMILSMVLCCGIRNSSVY
- test-description: ELISA
measured-endpoint: relative binding affinity

In the examples that follow, each entry is paired with its recorded relative binding affinity.
003-F08 (antibody, human IgG4 S228P, lambda, V domains shown, IgG4 S228P) VH: EVQLLESGGGLVQPGGSLRLSCAASGFTFSSNYMSWVRQAPGKGPEWVSYISSSSTYADYADSVKGRFTISRDNSKNTLYLQMNSLRAEDTAVYYCARYSYGRDNFDYWGQGTLVTVSS VL: QSVLTQPSSASGTPGQRVTISCTGSTSNIGAGYDTHWYQQLPGTAPKLLIYGNSNRPSGVPDRFSGSKSGTSASLAISGLRSEDEADYYCQSYDTNLSAWVFGGGTKLTVLG: < 20%
002-A07 N113S (antibody, human IgG4 S228P, lambda, V domains shown, IgG4 S228P; glycosylation site mutant of 002-A07 VL) VH: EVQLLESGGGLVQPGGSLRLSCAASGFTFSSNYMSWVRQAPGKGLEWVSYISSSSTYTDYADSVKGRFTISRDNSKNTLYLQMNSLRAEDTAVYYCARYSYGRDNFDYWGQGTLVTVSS VL: QSVLTQPPSASGTPGQRVTISCTGSTSNIGAGYDTHWYQQLPGTAPKLLIYGNSNRPSGVPDRFSGSKSGTSASLAISGLRSEDEADYYCQSYDTSLSVWVFGGGTKLTVLG: < 20%

Query: So what's the measured relative binding affinity for this one? 002-A07 N113G (antibody, human IgG4 S228P, lambda, V domains shown, IgG4 S228P; glycosylation site mutant of 002-A07 VL) VH: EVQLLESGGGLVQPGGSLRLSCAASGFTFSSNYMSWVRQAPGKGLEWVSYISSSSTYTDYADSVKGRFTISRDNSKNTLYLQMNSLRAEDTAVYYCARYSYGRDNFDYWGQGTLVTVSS VL: QSVLTQPPSASGTPGQRVTISCTGSTSNIGAGYDTHWYQQLPGTAPKLLIYGNSNRPSGVPDRFSGSKSGTSASLAISGLRSEDEADYYCQSYDTGLSVWVFGGGTKLTVLG
Result: < 20%

Query: So what's the measured relative binding affinity for this one? 002-A07 S115G (antibody, human IgG4 S228P, lambda, V domains shown, IgG4 S228P; glycosylation site mutant of 002-A07 VL) VH: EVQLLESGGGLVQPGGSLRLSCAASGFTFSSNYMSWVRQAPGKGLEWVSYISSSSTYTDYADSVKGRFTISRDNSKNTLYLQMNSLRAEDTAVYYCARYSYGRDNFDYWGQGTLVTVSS VL: QSVLTQPPSASGTPGQRVTISCTGSTSNIGAGYDTHWYQQLPGTAPKLLIYGNSNRPSGVPDRFSGSKSGTSASLAISGLRSEDEADYYCQSYDTNLGVWVFGGGTKLTVLG
Result: < 20%

Query: So what's the measured relative binding affinity for this one? 002-B05 (antibody, human IgG4 S228P, lambda, V domains shown, IgG4 S228P) VH: EVQLLESGGGLVQPGGSLRLSCAASGFTFSSNYMSWVRQAPGKGLEWVSYISSSSTYTDYADSVKGRFTISRDNSKNTLYLQMNSLRAEDTAVYYCARYSYSRDNFDYWGQGTLVTVSS VL: QSVLTQPPSASGTPGQRVTISCTGSTSNIGAGYGTHWYQRLPGTAPKLLIYGNSNRPSGVPDRFSGSKSGTSASLAISGLRSEDEADYYCQSYDTNLSVWVFGGGTKLTVLG
Result: < 20%
